zone of inhibition at 100 µg/mL: recorded values
test system: Candida albicans; experiment: Antifungal activity against Candida albicans at 100 ug/ml after 48 hrs by disc diffusion method; assay type: functional; conditions: read-out: IZ
Numbers only here, please. The scale is mm.

molecule: COCCCn1ncn(-c2nc3c(s2)C(C)Sc2sccc2-3)c1=O (stereo not given)
metric: zone of inhibition at 100 µg/mL
reported_measurement: 36
--
molecule: CC(C)n1ncn(-c2nc(-c3ccsc3)cs2)c1=O
metric: zone of inhibition at 100 µg/mL
reported_measurement: 22
--
molecule: CCn1ncn(-c2nc(-c3ccsc3)cs2)c1=O
metric: zone of inhibition at 100 µg/mL
reported_measurement: 23
--
molecule: CC1Sc2sccc2-c2nc(-n3cnn(C)c3=O)sc21 (stereo not given)
metric: zone of inhibition at 100 µg/mL
reported_measurement: 22
--
molecule: O=c1[nH]ncn1-c1nc(-c2ccsc2)cs1
metric: zone of inhibition at 100 µg/mL
reported_measurement: 35

Q: Give zone of inhibition at 100 µg/mL for COCCCn1ncn(-c2nc(-c3ccsc3)cs2)c1=O
Ans: 24

Q: Give zone of inhibition at 100 µg/mL for N#CCn1ncn(-c2nc(-c3ccsc3)cs2)c1=O
Ans: 28

====

system: Fusarium solani; test: Antifungal activity against Fusarium solani at 200 ug/ml after 48 hrs by disc diffusion method; type: functional; details: read-out: IZ
Response key: Fulfilled means zone of inhibition at 200 µg/mL >= 30 mm; Not fulfilled means zone of inhibition at 200 µg/mL < 30 mm.

molecule: O=c1[nH]ncn1-c1nc(-c2ccsc2)cs1
target_or_test_system: Fusarium solani
assigned_category: Fulfilled

Q: State whether the measured zone of inhibition at 200 µg/mL reaches 30 mm, counting equality as reaching it, for COCCCn1ncn(-c2nc3c(s2)C(C)Sc2sccc2-3)c1=O (stereo unspecified)
Ans: Fulfilled

Q: State whether the measured zone of inhibition at 200 µg/mL reaches 30 mm, counting equality as reaching it, for COCCCn1ncn(-c2nc(-c3ccsc3)cs2)c1=O
Ans: Fulfilled

Q: State whether the measured zone of inhibition at 200 µg/mL reaches 30 mm, counting equality as reaching it, for CC1Sc2sccc2-c2nc(-n3cnn(CC#N)c3=O)sc21 (stereo unspecified)
Ans: Not fulfilled

Q: State whether the measured zone of inhibition at 200 µg/mL reaches 30 mm, counting equality as reaching it, for CC(=O)N1CCN(c2ccc(OCC3COC(Cn4ccnc4)(c4ccc(Cl)cc4Cl)O3)cc2)CC1 (stereo unspecified)
Ans: Fulfilled

====

tested on: Staphylococcus aureus; assay: Antibacterial activity against Staphylococcus aureus at 100 ug/ml after 24 hrs by disc diffusion method; type: functional; settings: read-out: IZ
metric: zone of inhibition at 100 µg/mL (mm)
Numbers only here, please. The scale is mm.

compound: CC(C)Cn1ncn(-c2nc3c(s2)C(C)Sc2sccc2-3)c1=O (stereo unspecified)
zone of inhibition at 100 µg/mL, mm: 12
--
compound: CCn1ncn(-c2nc(-c3ccsc3)cs2)c1=O
zone of inhibition at 100 µg/mL, mm: 24
--
compound: N#CCn1ncn(-c2nc(-c3ccsc3)cs2)c1=O
zone of inhibition at 100 µg/mL, mm: 28
--
compound: COCCCn1ncn(-c2nc3c(s2)C(C)Sc2sccc2-3)c1=O (stereo unspecified)
zone of inhibition at 100 µg/mL, mm: 23
--
compound: CCn1ncn(-c2nc3c(s2)C(C)Sc2sccc2-3)c1=O (stereo unspecified)
zone of inhibition at 100 µg/mL, mm: 25

Turning now to a further record.
Q: Under Staphylococcus aureus: report zone of inhibition at 100 µg/mL of O=C(N[C@H](CO)[C@H](O)c1ccc([N+](=O)[O-])cc1)C(Cl)Cl [CHLORAMPHENICOL] .
Ans: 35
